- system: MC receptors in rat brain homogenate
- assay.method.text: Melanocortin receptor binding assay using ^125I-HP 467 in rat brain homogenate
- test.settings: individual tetrapeptides
Where a SMILES comes first, the peptide text is derived from it. [ ]: non-standard residue; d: D form. The star is where a group is joined. dPhe(4-Cl) = N[C@H](Cc1ccc(Cl)cc1)C(=O)O; 2Nal = N[C@@H](Cc1ccc2ccccc2c1)C(=O)O; d2Nal = N[C@H](Cc1ccc2ccccc2c1)C(=O)O; Fmoc = O=C(OCC1c2ccccc2-c2ccccc21)*; d2Thi = N[C@H](Cc1cccs1)C(=O)O
readout.type: pIC50
Please keep in mind that pIC50 is minus log10 of the molar concentration; only the number is needed.

Exercise: GET /values?readout=pIC50&item= CC(=O)NCCCC[C@H](NC(=O)OCC1c2ccccc2-c2ccccc21)C(=O)N[C@H](Cc1cccs1)C(=O)N[C@@H](CCCNC(=N)N)C(=O)N[C@@H](Cc1ccc2ccccc2c1)C(N)=O [Ac-(αFmLys)-(D-Thi)-R-(Nal)-NH2] (Fmoc-K(Ac)[d2Thi]R[2Nal]-NH2)
Solution: 6.33

Exercise: Another compound: CC(=O)NCCCC[C@H](NC(=O)OCC1c2ccccc2-c2ccccc21)C(=O)N[C@@H](CCCNC(=N)N)C(=O)N[C@@H](CCCNC(=N)N)C(=O)N[C@@H](Cc1ccc2ccccc2c1)C(N)=O [Ac-(αFmLys)-R-R-(Nal)-NH2] (Fmoc-K(Ac)RR[2Nal]-NH2)
Solution: 5.70

Exercise: Okay, and CC(=O)NCCCC[C@H](NC(=O)OCC1c2ccccc2-c2ccccc21)C(=O)N[C@H](Cc1ccc(Cl)cc1)C(=O)N[C@@H](CCCNC(=N)N)C(=O)N[C@@H](Cc1ccc2ccccc2c1)C(N)=O [Ac-(αFmLys)-(pCl-f)-R-(Nal)-NH2] (Fmoc-K(Ac)[dPhe(4-Cl)]R[2Nal]-NH2) ?
Solution: 6.37

Exercise: Also need CC(=O)N[C@@H](Cc1c[nH]cn1)C(=O)N[C@H](Cc1ccc(Cl)cc1)C(=O)N[C@@H](CCCNC(=N)N)C(=O)N[C@H](Cc1ccc2ccccc2c1)C(N)=O [Ac—H-(pCl-f)-R-(D-Nal)-NH2, Ac-His-(pCl-f)-Arg-(D-Nal)-NH2] (Ac-H[dPhe(4-Cl)]R[d2Nal]-NH2) , thanks.
Solution: 7.29
